src = patent US10071957B2

- target.desc: UniProt:Q15858
- Sequence (Q15858 whole entry, looked up): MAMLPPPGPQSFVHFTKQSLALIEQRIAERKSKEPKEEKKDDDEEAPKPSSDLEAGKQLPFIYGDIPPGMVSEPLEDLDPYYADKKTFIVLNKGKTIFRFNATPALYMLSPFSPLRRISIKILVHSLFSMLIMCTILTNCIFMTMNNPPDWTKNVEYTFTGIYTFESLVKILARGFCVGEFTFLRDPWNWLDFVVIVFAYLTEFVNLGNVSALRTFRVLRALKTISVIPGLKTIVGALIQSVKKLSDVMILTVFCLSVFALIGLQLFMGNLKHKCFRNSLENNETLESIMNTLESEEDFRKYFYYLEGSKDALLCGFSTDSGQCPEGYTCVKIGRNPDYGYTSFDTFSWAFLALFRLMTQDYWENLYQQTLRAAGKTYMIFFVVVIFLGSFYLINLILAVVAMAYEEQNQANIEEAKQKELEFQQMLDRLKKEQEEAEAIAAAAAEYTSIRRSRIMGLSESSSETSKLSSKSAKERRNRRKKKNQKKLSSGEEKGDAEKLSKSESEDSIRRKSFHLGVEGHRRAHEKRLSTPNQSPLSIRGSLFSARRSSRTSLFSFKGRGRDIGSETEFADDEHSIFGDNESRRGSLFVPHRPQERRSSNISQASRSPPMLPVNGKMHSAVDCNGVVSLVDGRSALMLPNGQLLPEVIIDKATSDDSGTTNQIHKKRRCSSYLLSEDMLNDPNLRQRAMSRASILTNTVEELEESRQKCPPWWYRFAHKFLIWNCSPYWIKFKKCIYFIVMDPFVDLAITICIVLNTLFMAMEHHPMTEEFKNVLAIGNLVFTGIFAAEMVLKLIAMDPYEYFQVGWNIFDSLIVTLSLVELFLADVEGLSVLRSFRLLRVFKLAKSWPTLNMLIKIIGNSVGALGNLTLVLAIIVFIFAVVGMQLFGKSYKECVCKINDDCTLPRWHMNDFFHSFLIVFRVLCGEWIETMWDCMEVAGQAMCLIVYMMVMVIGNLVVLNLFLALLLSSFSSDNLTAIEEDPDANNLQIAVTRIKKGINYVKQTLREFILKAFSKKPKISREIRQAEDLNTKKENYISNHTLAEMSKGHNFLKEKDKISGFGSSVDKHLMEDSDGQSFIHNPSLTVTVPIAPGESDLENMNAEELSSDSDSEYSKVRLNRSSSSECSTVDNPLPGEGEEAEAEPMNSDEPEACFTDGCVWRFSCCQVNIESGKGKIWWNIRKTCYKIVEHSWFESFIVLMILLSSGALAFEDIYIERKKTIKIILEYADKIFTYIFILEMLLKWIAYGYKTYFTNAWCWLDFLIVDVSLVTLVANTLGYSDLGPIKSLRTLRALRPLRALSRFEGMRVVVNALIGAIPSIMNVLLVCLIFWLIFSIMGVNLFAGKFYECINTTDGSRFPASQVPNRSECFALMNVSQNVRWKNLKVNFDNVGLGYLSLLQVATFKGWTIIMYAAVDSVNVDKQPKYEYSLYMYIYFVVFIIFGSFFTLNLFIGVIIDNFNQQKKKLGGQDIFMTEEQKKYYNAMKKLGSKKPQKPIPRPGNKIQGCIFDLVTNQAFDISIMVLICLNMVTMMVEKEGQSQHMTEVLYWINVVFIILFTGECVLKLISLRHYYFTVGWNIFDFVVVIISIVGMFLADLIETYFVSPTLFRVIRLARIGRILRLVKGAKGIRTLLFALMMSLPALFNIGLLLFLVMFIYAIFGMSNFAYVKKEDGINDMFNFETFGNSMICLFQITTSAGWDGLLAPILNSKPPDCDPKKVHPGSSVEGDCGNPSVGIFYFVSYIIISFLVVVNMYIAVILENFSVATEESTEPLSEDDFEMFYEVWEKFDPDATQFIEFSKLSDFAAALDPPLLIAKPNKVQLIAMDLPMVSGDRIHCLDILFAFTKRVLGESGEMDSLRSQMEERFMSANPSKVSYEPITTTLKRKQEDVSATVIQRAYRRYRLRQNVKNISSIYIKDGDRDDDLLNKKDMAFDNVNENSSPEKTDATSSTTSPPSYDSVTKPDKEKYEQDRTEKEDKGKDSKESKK
- Sequence (Q07699 whole entry partner, looked up): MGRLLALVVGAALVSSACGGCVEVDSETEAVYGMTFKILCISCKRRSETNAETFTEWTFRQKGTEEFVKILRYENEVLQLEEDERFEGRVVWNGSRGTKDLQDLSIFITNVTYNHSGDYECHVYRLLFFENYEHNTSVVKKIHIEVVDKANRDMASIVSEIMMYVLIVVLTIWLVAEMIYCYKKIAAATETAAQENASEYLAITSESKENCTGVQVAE
- assay.method.text: Competitive binding of tritiated compound to membranes from cells expressing hNav1.7 and the β1 subunit
- test.parameters: 100 pM [3H]compound, 18 h, room temperature; read-out: NaV1.7 395 Membrane Binding IC50
measured.parameter: IC50 (nM)

Worked examples follow.
compound	target.desc	IC50, nM
CN(C)S(=O)(=O)NC(=O)c1cc(Cl)c(Oc2ccc(C#N)cc2)cc1F [Preparation 43]	UniProt:Q15858	10000
CC(C)COc1ncc(Oc2cc(F)c(C(=O)NS(=O)(=O)N3CCCC3)cc2Cl)cc1Cl [Preparation 14]	UniProt:Q15858	30.1

P: CN(C)S(=O)(=O)NC(=O)c1cc(Cl)c(OCc2ccc(Cl)c(Cl)c2)cc1F [Preparation 23]
Q: CN(C)S(=O)(=O)NC(=O)c1cc(Cl)c(Oc2cccc3[nH]ccc23)cc1F [Preparation 55]
Please tell me which of the two, P or Q , has the higher reported IC50 value. Indicate which entry you chose by stating its label.
Q

I: CN(C)S(=O)(=O)NC(=O)c1cc(Cl)c(Oc2ccc3cc[nH]c3c2)cc1F [Preparation 56]
II: O=C(NS(=O)(=O)N1CCC1)c1cc(C2CC2)c(Oc2cnc(OCC(F)(F)F)c(Cl)c2)cc1F [Preparation 94]
Lab note: check whether I or II shows the higher recorded IC50. The response must carry the label of the picked entry.
I
(I: 990 nM, II: 9 nM)
